Data provenance is the supplement of paper PMC6607015.

test system: A431; assay: filipin (cholesterol) integrated intensity within LBPA endosomes, Z-score; higher = more cholesterol in LBPA endosomes; conditions: compound concentration in added solution (µM; 5 µl added to 20 µl cells): 10; 18 h
Structures can show the parent of a compound that is named as a salt.
MEASURED QUANTITY: filipin (z-score)
Give bare numbers.

O=C(O)Cc1sc(-c2ccccc2)nc1-c1ccc(Cl)cc1 :: -0.591
Cc1ccc(/C(=C\CN2CCCC2)c2ccccn2)cc1 [Triprolidine hydrochloride] :: -0.378
CCCCc1cc2ccccc2c(OCCN(C)C)n1 [Dimethisoquin hydrochloride] :: 2.27
Nc1ccccc1S(N)(=O)=O [2-Aminobenzenesulfonamide] :: -0.417
COc1ccccc1N1CCN(CCCNc2cc(=O)n(C)c(=O)n2C)CC1 [Urapidil hydrochloride] :: -0.29
CC[C@]12CCCN3CCc4c(n(c5ccccc45)C(=O)C1)[C@@H]32 [Eburnamonine (-)] :: -0.422

Below is a list of compounds. For each, state its recorded filipin (z-score).
1. Nc1ccc(S(=O)(=O)c2ccc(N)cc2)cc1
2. CC(C)Cc1ccc([C@H](C)C(=O)O)cc1 [S-(+)-ibuprofen]
3. O=C(O)c1ccccc1Nc1cccc(C(F)(F)F)c1

Response line:
[-0.55, -0.443, -0.54]
